- assayTarget: Galectin-8 (Homo sapiens)
- Sequence (O00214 whole entry): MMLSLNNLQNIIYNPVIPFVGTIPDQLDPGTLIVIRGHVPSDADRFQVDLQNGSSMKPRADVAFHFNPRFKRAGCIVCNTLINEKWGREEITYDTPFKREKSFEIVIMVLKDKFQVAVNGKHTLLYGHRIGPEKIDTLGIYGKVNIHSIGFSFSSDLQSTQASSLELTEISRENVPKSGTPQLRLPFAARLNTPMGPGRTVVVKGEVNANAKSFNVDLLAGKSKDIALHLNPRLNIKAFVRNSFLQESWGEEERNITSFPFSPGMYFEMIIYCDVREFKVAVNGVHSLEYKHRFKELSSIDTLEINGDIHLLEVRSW
- assayExplanation: Binding affinity at recombinant human N-terminal Galectin 8 expressed in Escherichia coli BL21 incubated for 5 mins by fluorescence anisotropy assay
- assayContext: read-out: Kd
readoutKind: Kd (µM)
Only the number, expressed in µM, is required.

Kd reported for this compound `COc1cccc(N[C@@H]2[C@@H](O)[C@@H](Sc3ccc(Cl)c(Cl)c3)O[C@H](CO)[C@@H]2O)c1` : 330

Kd reported for this compound `Cc1ccc(N[C@@H]2[C@@H](O)[C@@H](Sc3ccc(Cl)c(Cl)c3)O[C@H](CO)[C@@H]2O)cc1C` : 490

Kd reported for this compound `OC[C@H]1O[C@H](Sc2ccc(Cl)c(Cl)c2)[C@H](O)[C@@H](Nc2cccc(Cl)c2)[C@H]1O` : 440
